# Tested on: poly rG–poly rC (RNA, polymer) G/C
# Test name: fluorimetric titration, Scatchard
# Condition notes: Na+ (sodium cacodylate, I = 0.05 M); pH 7.0; apparent; per phosphate; n fixed at 0.2; dye 1.3–1.5 × 10^-7 M; per base
Can you tell me log Ks for the items I'm about to list?

Please go through the list and note log Ks for each compound.
1. CC(O)C[n+]1c(C=C2C=CN(CCC[n+]3ccc(CCCc4cc[n+](CCCN5C=CC(=Cc6sc7ccccc7[n+]6CC(C)O)c6ccccc65)cc4)cc3)c3ccccc32)sc2ccccc21 (centres unmarked)
2. CC(O)C[n+]1c(C=C2C=CN(CCC[N+]3(C)CCC(CCCC4CC[N+](C)(CCCN5C=CC(=Cc6sc7ccccc7[n+]6CC(C)O)c6ccc(Cl)cc65)CC4)CC3)c3cc(Cl)ccc32)sc2ccccc21 (centres unmarked)
3. CC(O)C[n+]1c(C=C2C=CN(CCC[N+](C)(C)CCC[N+](C)(C)C)c3ccccc32)sc2ccccc21 (centres unmarked)
4. CC(O)C[n+]1c(C=C2C=CN(CCC[N+](C)(C)CCC[N+](C)(C)CCCN3C=CC(=Cc4sc5ccccc5[n+]4CC(C)O)c4ccccc43)c3ccccc32)sc2ccccc21 (centres unmarked)
5. CC(O)C[n+]1c(C=C2C=CN(CCC[N+]3(C)CCC(CCCC4CC[N+](C)(CCCN5C=CC(=Cc6sc7ccccc7[n+]6CC(C)O)c6ccccc65)CC4)CC3)c3ccccc32)sc2ccccc21 (centres unmarked)

Reply text:
[4.76, 4.95, 5.23, 4.94, 4.79]

---

# System: poly dGdC–poly dGdC (DNA, polymer) GC
# Test name: fluorimetric titration, Scatchard
# Condition notes: Na+ (sodium cacodylate, I = 0.05 M); pH 7.0; apparent; per phosphate; n fixed at 0.2; dye 1.3–1.5 × 10^-7 M; per base
Quantity: log Ks
Answers are plain numbers.

Inquiry: State the recorded log Ks for this entry: CC(O)C[n+]1c(C=C2C=CN(CCC[N+](C)(C)CCC[N+](C)(C)CCCN3C=CC(=Cc4sc5ccccc5[n+]4CC(C)O)c4ccccc43)c3ccccc32)sc2ccccc21 (centres unmarked)
Reply text: 7.64

Inquiry: State the recorded log Ks for this entry: CC(O)C[n+]1c(C=C2C=CN(CCC[N+]3(C)CCC(CCCC4CC[N+](C)(CCCN5C=CC(=Cc6sc7ccccc7[n+]6CC(C)O)c6ccccc65)CC4)CC3)c3ccccc32)sc2ccccc21 (centres unmarked)
Reply text: 7.20

Inquiry: State the recorded log Ks for this entry: CC(O)C[n+]1c(C=C2C=CN(CCC[N+](C)(C)CCC[N+](C)(C)C)c3ccccc32)sc2ccccc21 (centres unmarked)
Reply text: 6.98

Please go through the list and note log Ks for each molecule.
1. CC(O)C[n+]1c(C=C2C=CN(CCC[n+]3ccc(CCCc4cc[n+](CCCN5C=CC(=Cc6sc7ccccc7[n+]6CC(C)O)c6ccccc65)cc4)cc3)c3ccccc32)sc2ccccc21 (centres unmarked)
2. CC(O)C[n+]1c(C=C2C=CN(CCC[N+]3(C)CCC(CCCC4CC[N+](C)(CCCN5C=CC(=Cc6sc7ccccc7[n+]6CC(C)O)c6ccc(Cl)cc65)CC4)CC3)c3cc(Cl)ccc32)sc2ccccc21 (centres unmarked)

Reply text:
1. 7.04
2. 7.40

---

# System: poly dAdT–poly dAdT (DNA, polymer) AT
# Test name: UV thermal melting at 260 nm
# Condition notes: Na+ (sodium cacodylate, I = 0.05 M); pH 7.0; r = [compound]/[phosphate] = 0.2; polynucleotide 1–2 × 10^-5 M; per base
Can you tell me ΔTm for the items I'm about to list?
Numbers only, in °C.

Inquiry: Given the entry CC(O)C[n+]1c(C=C2C=CN(CCC[N+](C)(C)CCC[N+](C)(C)CCCN3C=CC(=Cc4sc5ccccc5[n+]4CC(C)O)c4ccccc43)c3ccccc32)sc2ccccc21 (stereo not shown) , what ΔTm was observed with poly dAdT–poly dAdT (DNA, polymer) AT?
Reply text: 8.9

Inquiry: Given the entry CC(O)C[n+]1c(C=C2C=CN(CCC[N+](C)(C)CCC[N+](C)(C)C)c3ccccc32)sc2ccccc21 (stereo not shown) , what ΔTm was observed with poly dAdT–poly dAdT (DNA, polymer) AT?
Reply text: 28.6

Inquiry: Given the entry CC(O)C[n+]1c(C=C2C=CN(CCC[N+]3(C)CCC(CCCC4CC[N+](C)(CCCN5C=CC(=Cc6sc7ccccc7[n+]6CC(C)O)c6ccc(Cl)cc65)CC4)CC3)c3cc(Cl)ccc32)sc2ccccc21 (stereo not shown) , what ΔTm was observed with poly dAdT–poly dAdT (DNA, polymer) AT?
Reply text: 7.1

Okay, next one:
Inquiry: Given the entry CC(O)C[n+]1c(C=C2C=CN(CCC[N+]3(C)CCC(CCCC4CC[N+](C)(CCCN5C=CC(=Cc6sc7ccccc7[n+]6CC(C)O)c6ccccc65)CC4)CC3)c3ccccc32)sc2ccccc21 (stereo not shown) , what ΔTm was observed with poly dAdT–poly dAdT (DNA, polymer) AT?
Reply text: 10.7
